Target: recombinant human 17β-hydroxysteroid dehydrogenase type 1 (Homo sapiens, UniProt P14061)
Construct: made in house; host or cells: Sf9 insect cells (baculovirus, Bac to Bac Expression System)
Sequence (P14061 1-328): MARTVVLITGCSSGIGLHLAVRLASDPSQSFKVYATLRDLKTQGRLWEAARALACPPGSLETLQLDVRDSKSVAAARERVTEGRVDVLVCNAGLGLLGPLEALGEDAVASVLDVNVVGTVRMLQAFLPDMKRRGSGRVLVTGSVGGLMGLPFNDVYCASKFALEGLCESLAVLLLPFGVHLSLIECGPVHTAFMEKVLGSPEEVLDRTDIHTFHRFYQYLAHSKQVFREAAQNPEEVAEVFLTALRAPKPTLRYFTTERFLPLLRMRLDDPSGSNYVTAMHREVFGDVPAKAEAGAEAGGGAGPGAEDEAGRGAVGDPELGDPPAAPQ
Test: Inhibition of recombinant human 17β-hydroxysteroid dehydrogenase type 1 (conversion of 3H-estrone to estradiol, HPLC)
Type: biochemical
Settings: inhibitor 100 nM; 30 nM 3H-estrone, 1 mM NADPH, 30 min at RT; read-out: Inhibition of rec. 17β-HSD1 (% inhibition), 100 nM
quantity-measured: inhibition at 0.1 µM
Quote the value and follow it with the unit of measurement.

Before answering, review these 2 worked examples.
C[C@]12CC[C@@H]3c4ccc(O)cc4CC[C@H]3[C@@H]1[C@@H](CNS(=O)(=O)c1ccc(F)cc1)CC2=O [Example 665]    54.6%
Cc1cccc(S(=O)(=O)N(C)C[C@H]2CC(=O)[C@@]3(C)CC[C@@H]4c5ccc(O)cc5CC[C@H]4[C@H]23)c1 [Example 694]    34.6%

# batch: return inhibition at 0.1 µM for each of the 3 molecules below
1. COc1ccc2c(c1)CC[C@H]1[C@@H]3[C@H](CCCCC(=O)NCc4cccnc4)CC(=O)[C@@]3(C)CC[C@H]21 [Example 338]
2. C[C@]12CC[C@@H]3c4ccc(O)cc4CC[C@H]3[C@@H]1[C@H](CCCO)CC2=O [Example 823]
3. COc1ccc2c(c1)CC[C@H]1[C@@H]3[C@H](CCCCC(=O)NCCc4c[nH]c5c(C)cccc45)CC(=O)[C@@]3(C)CC[C@H]21 [Example 347]

result:
1. 28.7%
2. 76.1%
3. 38%

# batch: return inhibition at 0.1 µM for each of the 3 molecules below
1. C[C@]12CC[C@@H]3c4ccc(O)cc4CC[C@H]3[C@@H]1[C@H](CCCC(=O)NCc1ccc(F)cc1F)CC2=O [Example 37]
2. CCCCNC(=O)CCCC[C@@H]1CC(=O)[C@@]2(C)CC[C@@H]3c4ccc(OC)cc4CC[C@H]3[C@H]12 [Example 345]
3. COc1ccc2c(c1)CC[C@H]1[C@@H]3[C@H](CCCNC(=O)Nc4ccc5ccccc5c4)CC(=O)[C@@]3(C)CC[C@H]21 [Example 460]

result:
1: 47.4%; 2: 33%; 3: 50.1%

# batch: return inhibition at 0.1 µM for each of the 5 molecules below
1. CNC(=O)CCC[C@@H]1CC(=O)[C@@]2(C)CC[C@@H]3c4ccc(O)cc4CC[C@H]3[C@H]12 [Example 4A]
2. COc1ccc2c(c1)CC[C@H]1[C@@H]3[C@H](CCC(=O)N(C)C4CCCCC4)CC(=O)[C@@]3(C)CC[C@H]21 [Example 313]
3. COc1ccc2c(c1)CCC1C2CC[C@]2(C)C(=O)C[C@H](C(=O)Nc3ncc(C)s3)C12 (stereo partly shown) [Example 105]
4. COc1ccc2c(c1)CC[C@H]1[C@@H]3[C@H](CCCOC(=O)Nc4ccc(Cl)c(Cl)c4)CC(=O)[C@@]3(C)CC[C@H]21 [Example 749]
5. COc1ccc2c(c1)CC[C@H]1[C@@H]3[C@H](CCCNC(=O)NC(C)C)CC(=O)[C@@]3(C)CC[C@H]21 [Example 449]

result:
47.1%
62.6%
33.8%
29.8%
26%
